Assay: Pharmacokinetic experiment in rats
Format: in vivo, Male SD rats
Settings: male, SD; rat plasma, single oral gavage 10 mg/kg

compound	Tmax
CNc1cc2nc3c(cnn13)C(=O)OC(C)COCc1ccc(OC)c(c1)N2 (stereo not drawn) [Example 2]	30 min
CNc1cc2nc3c(cnn13)C(=O)N[C@H](C)COCc1ccc(OC)c(c1)N2 [control compound B, reference compound]	30 min
CNc1cc2nn3c(cnc13)C(=O)N[C@@H]1CCC[C@H]1OCc1cc(c3nnn(C)c3c1)N2 [control compound A, reference compound]	110 min

---

Overview of reported half-life across a group of compounds:
Assay: Pharmacokinetic experiment in rats
Assay type: in vivo, Male SD rats
Conditions: male, SD; rat plasma, single oral gavage 10 mg/kg
value.type: half-life (min)

compound	value.type	unit.symbol	numeric.readout
CNc1cc2nc3c(cnn13)C(=O)N[C@H](C)COCc1ccc(OC)c(c1)N2 [control compound B, reference compound]	half-life	min	64.8
CNc1cc2nc3c(cnn13)C(=O)OC(C)COCc1ccc(OC)c(c1)N2 (stereo not drawn)	half-life	min	148
CNc1cc2nn3c(cnc13)C(=O)N[C@@H]1CCC[C@H]1OCc1cc(c3nnn(C)c3c1)N2 [control compound A, reference compound]	half-life	min	184
